Origin of the recorded values: ChEMBL document CHEMBL1125826

# System: Bacteria
# measurement notes: MIC ratio measured as the mean MICs of gram-negative bacteria
# Format: functional
I'd appreciate it if you could supply Geometric mean MIC over Gram-negative bacteria (µg/mL) values for the items below.
Just the number, please, no unit after it.

## Task Fill in reported Geometric mean MIC over Gram-negative bacteria (µg/mL) for this entry: CCNCC1CCN(c2cc3c(c(N)c2F)c(=O)c(C(=O)O)cn3C2CC2)C1 (stereo not given)
## Result 0.26

## Task Fill in reported Geometric mean MIC over Gram-negative bacteria (µg/mL) for this entry: CCn1cc(C(=O)O)c(=O)c2c(N)c(F)c(N3CCNCC3)c(F)c21
## Result 0.26

## Task Fill in reported Geometric mean MIC over Gram-negative bacteria (µg/mL) for this entry: Nc1c(F)c(N2CCNCC2)cc2c1c(=O)c(C(=O)O)cn2C1CC1
## Result 0.038

## Task Fill in reported Geometric mean MIC over Gram-negative bacteria (µg/mL) for this entry: CC1CN(c2c(F)c(O)c3c(=O)c(C(=O)O)cn(C4CC4)c3c2F)CCN1 (stereo not given)
## Result 0.2

## Task Fill in reported Geometric mean MIC over Gram-negative bacteria (µg/mL) for this entry: CCNCC1CCN(c2c(F)cc3c(=O)c(C(=O)O)cn(CC)c3c2F)C1 (stereo not given)
## Result 0.26

## Task Fill in reported Geometric mean MIC over Gram-negative bacteria (µg/mL) for this entry: NC1CCN(c2cc3c(c(O)c2F)c(=O)c(C(=O)O)cn3C2CC2)C1 (stereo not given)
## Result 0.038

## Task Fill in reported Geometric mean MIC over Gram-negative bacteria (µg/mL) for this entry: CC1CN(c2c(F)cc3c(=O)c(C(=O)O)cn(C4CC4)c3c2Cl)CCN1 (stereo not given)
## Result 0.087

## Task Fill in reported Geometric mean MIC over Gram-negative bacteria (µg/mL) for this entry: Nc1c(F)c(N2CCNCC2)c(F)c2c1c(=O)c(C(=O)O)cn2C1CC1
## Result 0.022

## Task Fill in reported Geometric mean MIC over Gram-negative bacteria (µg/mL) for this entry: CCn1cc(C(=O)O)c(=O)c2cc(F)c(N3CCC(N)C3)c(F)c21 (stereo not given)
## Result 0.17

## Task Fill in reported Geometric mean MIC over Gram-negative bacteria (µg/mL) for this entry: CCNCC1CCN(c2c(F)cc3c(=O)c(C(=O)O)cn4c3c2OCC4C)C1 (stereo not given)
## Result 0.4

----------
# Test system: Staphylococcus aureus
# measurement notes: Antibacterial activity was determined against gram positive organism, Staphylococcus aureus H228
# Format: functional
# condition description: Staphylococcus aureus; read-out: MIC
readout: MIC (µg/mL)
Give just the number in µg/mL; leave the unit off.

## Task Under Staphylococcus aureus: report MIC of CCn1cc(C(=O)O)c(=O)c2c(N)c(F)c(N3CCNCC3)cc21 .
## Result 0.4

## Task Under Staphylococcus aureus: report MIC of CCNCC1CCN(c2c(F)cc3c(=O)c(C(=O)O)cn(C4CC4)c3c2Cl)C1 (stereo not given) .
## Result 0.013

## Task Under Staphylococcus aureus: report MIC of CCNCC1CCN(c2c(F)cc3c(=O)c(C(=O)O)cn4c3c2OCC4C)C1 (stereo not given) .
## Result 0.2

## Task Under Staphylococcus aureus: report MIC of CCn1cc(C(=O)O)c(=O)c2c(N)c(F)c(N3CC(C)NC(C)C3)c(Cl)c21 (stereo not given) .
## Result 3.1

## Task Under Staphylococcus aureus: report MIC of CCNCC1CCN(c2c(F)c(N)c3c(=O)c(C(=O)O)cn(C4CC4)c3c2F)C1 (stereo not given) .
## Result 0.013
